Reported Ki against Beta-secretase 1 (Homo sapiens, UniProt P56817), gathered from multiple publications, appears below.
metric.name: Ki (µM)

Worked set:
[[record]]
compound = "C[C@H]1C[C@@H]2[C@](c3cc(OCC45CC(C#N)(C4)C5)ccc3F)(CO1)NC(=N)N(C)S2(=O)=O"
scale_unit = "µM"
measured_number = 0.0091

[[record]]
compound = "Cc1nc(N2C[C@H]3C(=O)N(C)C(=N)N[C@@]3(c3ccc(Cl)s3)C2)nc(C)c1F"
scale_unit = "µM"
measured_number = 0.047


P. COc1ccc(C(=O)Nc2ccc3c(c2)[C@]2(CCO3)CS(=O)(=O)C(C)(C)C(=N)N2)nc1
Q. CCN1C(=N)N[C@](C)(c2cc(NC(=O)c3ccc(Cl)cn3)ccc2F)CS1(=O)=NC (stereo partly shown)
R. Cc1cc(C#N)cnc1C(=O)Nc1cc(F)c(F)c([C@@]2(CF)N=C(N)CCC2(F)F)c1
Ask: Order these by Ki, descending, and give the full ranking. Your task in answering is to list the labels in the requested order.
Result: P, R, Q
